Hey, just so you know, these numbers are from patent US20220025055A1.

Target: T1, human FLT3 (FMS-like tyrosine kinase 3) (human, UniProt P36888 27-993)
T1 sequence (looked up): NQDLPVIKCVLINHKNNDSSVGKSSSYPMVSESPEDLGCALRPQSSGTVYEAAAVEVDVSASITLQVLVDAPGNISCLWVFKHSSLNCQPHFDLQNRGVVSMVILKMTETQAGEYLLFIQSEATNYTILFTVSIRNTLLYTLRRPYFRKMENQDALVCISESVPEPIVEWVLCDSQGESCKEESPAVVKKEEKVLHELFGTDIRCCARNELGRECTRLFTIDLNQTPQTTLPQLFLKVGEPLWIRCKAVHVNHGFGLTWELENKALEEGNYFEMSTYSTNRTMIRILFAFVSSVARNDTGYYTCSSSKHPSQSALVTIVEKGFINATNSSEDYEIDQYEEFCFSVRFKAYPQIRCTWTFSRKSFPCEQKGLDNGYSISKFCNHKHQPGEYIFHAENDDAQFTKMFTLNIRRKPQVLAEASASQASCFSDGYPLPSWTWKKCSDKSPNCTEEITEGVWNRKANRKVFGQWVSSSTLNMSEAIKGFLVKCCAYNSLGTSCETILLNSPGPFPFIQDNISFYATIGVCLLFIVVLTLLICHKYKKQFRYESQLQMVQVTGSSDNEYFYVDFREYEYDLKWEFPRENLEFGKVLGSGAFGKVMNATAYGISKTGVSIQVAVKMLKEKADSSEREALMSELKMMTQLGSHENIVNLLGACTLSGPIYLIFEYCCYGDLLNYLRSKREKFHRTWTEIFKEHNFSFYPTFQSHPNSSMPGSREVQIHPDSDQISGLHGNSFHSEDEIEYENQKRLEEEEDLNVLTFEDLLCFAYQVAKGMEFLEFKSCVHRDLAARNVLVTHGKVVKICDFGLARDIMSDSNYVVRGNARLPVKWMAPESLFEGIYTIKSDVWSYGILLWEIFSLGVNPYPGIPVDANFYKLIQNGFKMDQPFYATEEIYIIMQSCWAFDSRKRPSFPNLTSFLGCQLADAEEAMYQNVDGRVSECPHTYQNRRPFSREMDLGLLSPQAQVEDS
Experiment: cell-based or functional assay
Assignment: determine reported EC50 in AML5 proliferation assay for the given binders.
A number alone suffices; assume nM.

Inquiry: So what does the record say about EC50 in AML5 proliferation assay for Humanized VH3 x Humanized VL1 (antibody, V domains shown) VH: EVQLVESGGGLVQPGGSLRLSCAPSGFTFSNYGMAWVRQAPGKGLVWVSSIHSGGGDTYYRDSVKGRFTISRDNAKNTLYLQMNSLRAEDTAVYYCARGRTPTGYYFDHWGQGTMVTVSS VL: DIQMTQSPSSLSASVGDRVTITCRASEGIHNGLAWYQQKPGKVPKLLIYNANSLHSGVPSRFSGSGSGTDFTLTISSLQPEDVATYFCQQYYDYPLTFGQGTKLEIK ?
Reply text: 0.076

Inquiry: Give the measured EC50 in AML5 proliferation assay of Humanized VH4 x Humanized VL5 (antibody, V domains shown) VH: QVQLVESGGGVVQPGRSLRLSCAASGFTFSNYGMAWVRQAPGKGLEWVASIHSGGGDTYYRDSVKGRFTISRDNSKNTLYLQMNSLRAEDTATYYCARGRTPTGYYFDHWGQGTMVTVSS VL: EIVMTQSPATLSVSPGERATLSCRASEGIHNGLAWYQQKPGQAPRLLIYNANSLHSGIPARFSGSGSGTEFTLTISSLQSEDFAVYFCQQYYDYPLTFGQGTKLEIK .
Reply text: 0.098

Inquiry: Look at this binder and give its reported EC50 in AML5 proliferation assay. Humanized VH3 x Humanized VL5 (antibody, V domains shown) VH: EVQLVESGGGLVQPGGSLRLSCAPSGFTFSNYGMAWVRQAPGKGLVWVSSIHSGGGDTYYRDSVKGRFTISRDNAKNTLYLQMNSLRAEDTAVYYCARGRTPTGYYFDHWGQGTMVTVSS VL: EIVMTQSPATLSVSPGERATLSCRASEGIHNGLAWYQQKPGQAPRLLIYNANSLHSGIPARFSGSGSGTEFTLTISSLQSEDFAVYFCQQYYDYPLTFGQGTKLEIK
Reply text: 0.07
